A short record of Ki observed with Kappa-type opioid receptor (Homo sapiens) follows.
Write down the numeric answer in pM and omit the unit.

Sample records with Ki:
* CN(C(=O)CNc1cccc(CNS(C)(=O)=O)c1)[C@H](CN1CC[C@H](O)C1)c1ccccc1 | 3900
* CN(C(=O)CNc1ccc(C#N)cc1)[C@H](CN1CC[C@H](O)C1)c1ccccc1 | 660
* CN(C(=O)CNc1ccccc1C#N)[C@H](CN1CC[C@H](O)C1)c1ccccc1 | 390
* CCCS(=O)(=O)Nc1ccc(NCC(=O)N(C)[C@H](CN2CC[C@H](O)C2)c2ccccc2)cc1 | 1500

Next item in the queue.
-- ask Fill blank: measured Ki of the compound "CN(CC(=O)N(C)[C@H](CN1CC[C@H](O)C1)c1ccccc1)c1ccccc1" is ____.
-- reply 320

* * *

Target: Kappa-type opioid receptor (Homo sapiens)
Assay metric: pKi
On this scale, pKi is minus log10 of a concentration expressed in M (mol/L).

* CN(C(=O)CNc1ccc(C(F)(F)F)cc1)[C@H](CN1CC[C@H](O)C1)c1ccccc1 | 9.41
* CN(C(=O)CNc1ccccc1CNS(C)(=O)=O)[C@H](CN1CC[C@H](O)C1)c1ccccc1 | 9.11
* CN(C(=O)CNc1ccc([N+](=O)[O-])cc1)[C@H](CN1CC[C@H](O)C1)c1ccccc1 | 9.68
* CN(C(=O)CNc1cccc(C#N)c1)[C@H](CN1CC[C@H](O)C1)c1ccccc1 | 9.30
* CN(C(=O)CNc1ccc(CNS(C)(=O)=O)cc1)[C@H](CN1CC[C@H](O)C1)c1ccccc1 | 7.80
* CC(=O)N(CC(=O)N(C)[C@H](CN1CC[C@H](O)C1)c1ccccc1)c1ccccc1 | 8.42
* CN(C(=O)CNc1ccc(NS(C)(=O)=O)cc1)[C@H](CN1CC[C@H](O)C1)c1ccccc1 | 8.24
* CN(CC(=O)N(C)[C@H](CN1CC[C@H](O)C1)c1ccccc1)c1ccc(C#N)cc1 | 9.00

Next item in the queue.
-- ask Look up pKi with Kappa-type opioid receptor (Homo sapiens) for this compound: "CN(C(=O)CNc1ccc(Cl)c(Cl)c1)[C@H](CN1CC[C@H](O)C1)c1ccccc1"
-- reply 9.96

* * *

Overview of reported Ratio across a group of compounds:
Molecular target: Opioid receptors; mu & kappa (Homo sapiens) (UniProt P41145+P35372)
Sequence (P35372 whole entry, looked up): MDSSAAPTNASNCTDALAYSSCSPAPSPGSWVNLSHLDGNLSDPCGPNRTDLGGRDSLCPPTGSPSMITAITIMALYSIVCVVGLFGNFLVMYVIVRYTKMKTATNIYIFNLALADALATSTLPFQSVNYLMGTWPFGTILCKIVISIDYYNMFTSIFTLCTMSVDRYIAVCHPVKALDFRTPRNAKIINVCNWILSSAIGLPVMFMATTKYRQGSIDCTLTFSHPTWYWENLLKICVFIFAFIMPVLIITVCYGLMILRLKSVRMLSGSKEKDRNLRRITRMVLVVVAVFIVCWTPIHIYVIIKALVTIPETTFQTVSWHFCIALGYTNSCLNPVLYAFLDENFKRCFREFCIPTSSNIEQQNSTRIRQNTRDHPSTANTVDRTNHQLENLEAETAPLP
Sequence (P41145 whole entry, looked up): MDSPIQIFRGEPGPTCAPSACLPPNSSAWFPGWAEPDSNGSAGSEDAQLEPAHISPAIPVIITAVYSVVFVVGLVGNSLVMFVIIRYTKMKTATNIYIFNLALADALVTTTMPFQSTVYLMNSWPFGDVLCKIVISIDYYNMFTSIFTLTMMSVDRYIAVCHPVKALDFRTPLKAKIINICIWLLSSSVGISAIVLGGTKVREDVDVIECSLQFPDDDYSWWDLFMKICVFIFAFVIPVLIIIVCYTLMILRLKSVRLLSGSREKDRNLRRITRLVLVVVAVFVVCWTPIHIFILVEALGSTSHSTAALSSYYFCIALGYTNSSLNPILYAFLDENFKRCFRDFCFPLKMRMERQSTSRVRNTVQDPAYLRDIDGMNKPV
Assay: Selectivity for kappa opioid receptor over mu opioid receptor
Type: protein assay

• CC(=O)N(CC(=O)N(C)[C@H](CN1CC[C@H](O)C1)c1ccccc1)c1ccccc1 = > 1320

-- ask Fill blank: measured Ratio of the compound "CN(C(=O)CNc1ccc(CNS(C)(=O)=O)cc1)[C@H](CN1CC[C@H](O)C1)c1ccccc1" is ____.
-- reply 81

-- ask Fill blank: measured Ratio of the compound "CN(C(=O)CNc1ccc(Cl)c(Cl)c1)[C@H](CN1CC[C@H](O)C1)c1ccccc1" is ____.
-- reply 427

-- ask Fill blank: measured Ratio of the compound "CCCS(=O)(=O)Nc1ccc(NCC(=O)N(C)[C@H](CN2CC[C@H](O)C2)c2ccccc2)cc1" is ____.
-- reply 1000

-- ask Fill blank: measured Ratio of the compound "CN(C(=O)CNc1ccc([N+](=O)[O-])cc1)[C@H](CN1CC[C@H](O)C1)c1ccccc1" is ____.
-- reply 905

-- ask Fill blank: measured Ratio of the compound "CN(CC(=O)N(C)[C@H](CN1CC[C@H](O)C1)c1ccccc1)c1ccccc1" is ____.
-- reply 1660

-- ask Fill blank: measured Ratio of the compound "CN(C(=O)CNc1ccc(C(F)(F)F)cc1)[C@H](CN1CC[C@H](O)C1)c1ccccc1" is ____.
-- reply 385

-- ask Fill blank: measured Ratio of the compound "CN(C(=O)CNc1cccc(CNS(C)(=O)=O)c1)[C@H](CN1CC[C@H](O)C1)c1ccccc1" is ____.
-- reply 38

-- ask Fill blank: measured Ratio of the compound "CN(C(=O)CNc1ccccc1CNS(C)(=O)=O)[C@H](CN1CC[C@H](O)C1)c1ccccc1" is ____.
-- reply 85

-- ask Fill blank: measured Ratio of the compound "CN(C(=O)CNc1ccccc1)[C@H](CN1CC[C@H](O)C1)c1ccccc1" is ____.
-- reply 5880

-- ask Fill blank: measured Ratio of the compound "CN(C(=O)CNc1ccc(C#N)cc1)[C@H](CN1CC[C@H](O)C1)c1ccccc1" is ____.
-- reply 833

* * *

Molecular target: Opioid receptors; delta & kappa (Homo sapiens) (UniProt P41145+P41143)
Sequence (P41143 whole entry, looked up): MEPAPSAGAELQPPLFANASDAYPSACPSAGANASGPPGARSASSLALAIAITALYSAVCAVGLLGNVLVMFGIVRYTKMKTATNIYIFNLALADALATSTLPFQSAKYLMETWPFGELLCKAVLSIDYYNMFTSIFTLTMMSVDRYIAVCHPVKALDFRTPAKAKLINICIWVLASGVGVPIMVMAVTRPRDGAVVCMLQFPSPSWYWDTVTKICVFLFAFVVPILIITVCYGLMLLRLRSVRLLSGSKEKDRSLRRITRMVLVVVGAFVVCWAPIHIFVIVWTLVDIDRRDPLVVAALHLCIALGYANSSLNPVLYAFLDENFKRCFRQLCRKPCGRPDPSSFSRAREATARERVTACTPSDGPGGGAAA
Sequence (P41145 whole entry, looked up): as the sequence (P41145 whole entry, looked up) above
Assay: Selectivity for kappa opioid receptor over delta opioid receptor
Type: protein assay
Assay metric: Ratio
Simply state the number, no unit and no words.

Sample records with Ratio:
- CN(C(=O)CNc1ccccc1C#N)[C@H](CN1CC[C@H](O)C1)c1ccccc1: 49
- CN(C(=O)CNc1ccc(Cl)c(Cl)c1)[C@H](CN1CC[C@H](O)C1)c1ccccc1: 91
- CN(C(=O)CNc1ccccc1)[C@H](CN1CC[C@H](O)C1)c1ccccc1: 512
- CN(C(=O)CNc1ccccc1CNS(C)(=O)=O)[C@H](CN1CC[C@H](O)C1)c1ccccc1: 10
- CN(C(=O)CNc1ccc(CNS(C)(=O)=O)cc1)[C@H](CN1CC[C@H](O)C1)c1ccccc1: 119

-- ask Fill blank: measured Ratio of the molecule "CN(C(=O)CNc1ccc(C(F)(F)F)cc1)[C@H](CN1CC[C@H](O)C1)c1ccccc1" is ____.
-- reply 256

-- ask Fill blank: measured Ratio of the molecule "CN(C(=O)CNc1cccc(C#N)c1)[C@H](CN1CC[C@H](O)C1)c1ccccc1" is ____.
-- reply 66

-- ask Fill blank: measured Ratio of the molecule "CN(C(=O)CNc1ccc(NS(C)(=O)=O)cc1)[C@H](CN1CC[C@H](O)C1)c1ccccc1" is ____.
-- reply 47

* * *

A short record of pIC50 observed with UniProt P10635 follows.
On this scale, pIC50 is minus log10 of a concentration expressed in M (mol/L).

Sample records with pIC50:
* CN(C(=O)CNc1ccccc1)[C@H](CN1CC[C@H](O)C1)c1ccccc1 | 5.39
* CN(C(=O)CNc1ccc(C(F)(F)F)cc1)[C@H](CN1CC[C@H](O)C1)c1ccccc1 | 6.72

-- ask Look up pIC50 with UniProt P10635 for this compound: "CN(C(=O)CNc1ccccc1C#N)[C@H](CN1CC[C@H](O)C1)c1ccccc1"
-- reply 6.29

-- ask Look up pIC50 with UniProt P10635 for this compound: "CCCS(=O)(=O)Nc1ccc(NCC(=O)N(C)[C@H](CN2CC[C@H](O)C2)c2ccccc2)cc1"
-- reply 5.05

-- ask Look up pIC50 with UniProt P10635 for this compound: "CN(CC(=O)N(C)[C@H](CN1CC[C@H](O)C1)c1ccccc1)c1ccc(C#N)cc1"
-- reply 6.17

* * *

A short record of IC50 observed with Cytochrome P450 2D6 (Homo sapiens) follows.
Sequence (P10635 whole entry): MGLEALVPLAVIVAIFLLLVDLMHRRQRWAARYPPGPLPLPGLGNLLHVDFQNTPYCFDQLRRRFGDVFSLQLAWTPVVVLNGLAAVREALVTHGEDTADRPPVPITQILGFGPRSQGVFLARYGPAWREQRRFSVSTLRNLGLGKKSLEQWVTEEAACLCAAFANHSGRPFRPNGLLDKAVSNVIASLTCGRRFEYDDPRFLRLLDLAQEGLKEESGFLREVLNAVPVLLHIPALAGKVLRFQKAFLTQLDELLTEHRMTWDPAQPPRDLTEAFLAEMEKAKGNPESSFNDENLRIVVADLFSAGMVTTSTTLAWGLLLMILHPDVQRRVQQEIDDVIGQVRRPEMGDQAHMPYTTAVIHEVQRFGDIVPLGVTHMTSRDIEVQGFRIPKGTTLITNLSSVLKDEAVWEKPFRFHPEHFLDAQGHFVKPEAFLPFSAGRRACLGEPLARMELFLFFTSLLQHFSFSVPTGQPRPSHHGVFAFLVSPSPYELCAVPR
Write down the numeric answer in nM and omit the unit.

-- ask Look up IC50 with Cytochrome P450 2D6 (Homo sapiens) for this compound: "CN(C(=O)CNc1ccc(C#N)cc1)[C@H](CN1CC[C@H](O)C1)c1ccccc1"
-- reply 2500

-- ask Look up IC50 with Cytochrome P450 2D6 (Homo sapiens) for this compound: "CN(C(=O)CNc1ccc([N+](=O)[O-])cc1)[C@H](CN1CC[C@H](O)C1)c1ccccc1"
-- reply 3400

* * *

Overview of reported pEC50 across a group of compounds:
Molecular target: Kappa-type opioid receptor (Homo sapiens, UniProt P41145)
Sequence (P41145 whole entry): as the sequence (P41145 whole entry, looked up) above
Experiment: Agonist activity at kappa opioid receptor in a [35S]GTP-gamma-S functional assay
On this scale, pEC50 is minus log10 of a concentration expressed in M (mol/L).

• CN(C(=O)CNc1ccc(C(F)(F)F)cc1)[C@H](CN1CC[C@H](O)C1)c1ccccc1 = 9.10
• CN(C(=O)CNc1ccc(NS(C)(=O)=O)cc1)[C@H](CN1CC[C@H](O)C1)c1ccccc1 = 7.85
• CN(CC(=O)N(C)[C@H](CN1CC[C@H](O)C1)c1ccccc1)c1ccc(C#N)cc1 = 8.64

-- ask Look up pEC50 with Kappa-type opioid receptor (Homo sapiens, UniProt P41145) for this compound: "CN(C(=O)CNc1ccccc1C#N)[C@H](CN1CC[C@H](O)C1)c1ccccc1"
-- reply 9.38

-- ask Look up pEC50 with Kappa-type opioid receptor (Homo sapiens, UniProt P41145) for this compound: "CCCS(=O)(=O)Nc1ccc(NCC(=O)N(C)[C@H](CN2CC[C@H](O)C2)c2ccccc2)cc1"
-- reply 8.08

-- ask Look up pEC50 with Kappa-type opioid receptor (Homo sapiens, UniProt P41145) for this compound: "CN(C(=O)CNc1cccc(C#N)c1)[C@H](CN1CC[C@H](O)C1)c1ccccc1"
-- reply 9.24

-- ask Look up pEC50 with Kappa-type opioid receptor (Homo sapiens, UniProt P41145) for this compound: "CN(C(=O)CNc1ccc(C#N)cc1)[C@H](CN1CC[C@H](O)C1)c1ccccc1"
-- reply 9.31

-- ask Look up pEC50 with Kappa-type opioid receptor (Homo sapiens, UniProt P41145) for this compound: "CN(C(=O)CNc1ccc(Cl)c(Cl)c1)[C@H](CN1CC[C@H](O)C1)c1ccccc1"
-- reply 9.57

-- ask Look up pEC50 with Kappa-type opioid receptor (Homo sapiens, UniProt P41145) for this compound: "CN(CC(=O)N(C)[C@H](CN1CC[C@H](O)C1)c1ccccc1)c1ccccc1"
-- reply 9.64

-- ask Look up pEC50 with Kappa-type opioid receptor (Homo sapiens, UniProt P41145) for this compound: "CN(C(=O)CNc1ccccc1CNS(C)(=O)=O)[C@H](CN1CC[C@H](O)C1)c1ccccc1"
-- reply 9.28

-- ask Look up pEC50 with Kappa-type opioid receptor (Homo sapiens, UniProt P41145) for this compound: "CN(C(=O)CNc1ccc([N+](=O)[O-])cc1)[C@H](CN1CC[C@H](O)C1)c1ccccc1"
-- reply 9.64

-- ask Look up pEC50 with Kappa-type opioid receptor (Homo sapiens, UniProt P41145) for this compound: "CC(=O)N(CC(=O)N(C)[C@H](CN1CC[C@H](O)C1)c1ccccc1)c1ccccc1"
-- reply 8.13

-- ask Look up pEC50 with Kappa-type opioid receptor (Homo sapiens, UniProt P41145) for this compound: "CN(C(=O)CNc1ccc(CNS(C)(=O)=O)cc1)[C@H](CN1CC[C@H](O)C1)c1ccccc1"
-- reply 7.62

-- ask Look up pEC50 with Kappa-type opioid receptor (Homo sapiens, UniProt P41145) for this compound: "CN(C(=O)CNc1cccc(CNS(C)(=O)=O)c1)[C@H](CN1CC[C@H](O)C1)c1ccccc1"
-- reply 8.32
